Heads up, these compounds all have pKi values measured for Carbonic anhydrase 9 (Homo sapiens, UniProt Q16790).
In simple prose, pKi is minus the logarithm base ten of a concentration in moles per litre.

Query :: State, for Carbonic anhydrase 9 (Homo sapiens, UniProt Q16790), measured pKi of the compound listed here: Cc1c(C(=O)NCCN2CCOCC2)cc(-c2ccccc2)n1-c1ccc(S(N)(=O)=O)cc1
Result :: 6.70

Query :: State, for Carbonic anhydrase 9 (Homo sapiens, UniProt Q16790), measured pKi of the compound listed here: Cc1c(C(=O)NCCN2CCOCC2)cc(-c2ccc(-c3ccccc3)cc2)n1-c1ccc(S(N)(=O)=O)cc1
Result :: 6.73

Query :: State, for Carbonic anhydrase 9 (Homo sapiens, UniProt Q16790), measured pKi of the compound listed here: Cc1c(C(=O)NCCN(C)C)cc(-c2ccccc2)n1-c1ccc(S(N)(=O)=O)cc1
Result :: 6.62

Query :: State, for Carbonic anhydrase 9 (Homo sapiens, UniProt Q16790), measured pKi of the compound listed here: Cc1c(C(=O)NCCN2CCCCC2)cc(-c2ccccc2)n1-c1ccc(S(N)(=O)=O)cc1
Result :: 7.05

Query :: State, for Carbonic anhydrase 9 (Homo sapiens, UniProt Q16790), measured pKi of the compound listed here: Cc1c(C(=O)NCCCN(C)C)cc(-c2ccccc2)n1-c1ccc(S(N)(=O)=O)cc1
Result :: 6.88

Query :: State, for Carbonic anhydrase 9 (Homo sapiens, UniProt Q16790), measured pKi of the compound listed here: Cc1c(C(=O)NCCN2CCCCC2)cc(-c2ccc(-c3ccccc3)cc2)n1-c1ccc(S(N)(=O)=O)cc1
Result :: 6.78

Query :: State, for Carbonic anhydrase 9 (Homo sapiens, UniProt Q16790), measured pKi of the compound listed here: Cc1c(C(=O)NCCCN(C)C)cc(-c2ccc(-c3ccccc3)cc2)n1-c1ccc(S(N)(=O)=O)cc1
Result :: 6.95

Query :: State, for Carbonic anhydrase 9 (Homo sapiens, UniProt Q16790), measured pKi of the compound listed here: Cc1c(C(=O)NCCN2CCCCC2)cc(-c2ccc3ccccc3c2)n1-c1ccc(S(N)(=O)=O)cc1
Result :: 6.90

* * *

Tested Target: UniProt:Q16790
Can you tell me Ki for the items I'm about to list?
Express your answer in µM, writing the number without its unit.

Query :: Supply reported Ki belonging to this compound: Cc1c(C(=O)N2CCN(C)CC2)cc(-c2ccc(-c3ccccc3)cc2)n1-c1ccc(S(N)(=O)=O)cc1
Result :: 0.068

Query :: Supply reported Ki belonging to this compound: Cc1c(C(=O)NCCCN2CCOCC2)cc(-c2ccc3ccccc3c2)n1-c1ccc(S(N)(=O)=O)cc1
Result :: 0.137

Query :: Supply reported Ki belonging to this compound: Cc1c(C(=O)NCCN2CCN(C)CC2)cc(-c2ccc(-c3ccccc3)cc2)n1-c1ccc(S(N)(=O)=O)cc1
Result :: 0.207

Query :: Supply reported Ki belonging to this compound: Cc1c(C(=O)NCCCN2CCN(C)CC2)cc(-c2ccc(-c3ccccc3)cc2)n1-c1ccc(S(N)(=O)=O)cc1
Result :: 0.198

Query :: Supply reported Ki belonging to this compound: Cc1c(C(=O)NCCN2CCCC2)cc(-c2ccc3ccccc3c2)n1-c1ccc(S(N)(=O)=O)cc1
Result :: 0.03

Query :: Supply reported Ki belonging to this compound: Cc1c(C(=O)NCCCN(C)C)cc(-c2ccc3ccccc3c2)n1-c1ccc(S(N)(=O)=O)cc1
Result :: 0.011

Query :: Supply reported Ki belonging to this compound: Cc1c(C(=O)NCCN2CCOCC2)cc(-c2ccc3ccccc3c2)n1-c1ccc(S(N)(=O)=O)cc1
Result :: 0.022

Query :: Supply reported Ki belonging to this compound: Cc1c(C(=O)NCCN(C)C)cc(-c2ccc3ccccc3c2)n1-c1ccc(S(N)(=O)=O)cc1
Result :: 0.01
